biological target: T1, Human CD137 ECD (human); experiment: Biacore SPR, vs parent H183/L072
T1 construct: entry includes C-terminal His-tag and biotin acceptor peptide; also called human CD137 extracellular domain; 4-1BB
T1 sequence (chain, as listed by the source limits assumed): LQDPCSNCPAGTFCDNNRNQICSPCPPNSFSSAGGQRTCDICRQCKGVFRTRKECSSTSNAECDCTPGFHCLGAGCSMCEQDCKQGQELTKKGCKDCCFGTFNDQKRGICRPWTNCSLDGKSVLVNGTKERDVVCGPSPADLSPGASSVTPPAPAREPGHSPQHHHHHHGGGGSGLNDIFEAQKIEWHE
Assign fold change of affinity to each entry below.
Numbers only here, please. The scale is fold.

Request the reported fold change of affinity associated with H183/L072 VL F55E (antibody, name in Kabat numbering, V domains shown, Dual-Ig) VH: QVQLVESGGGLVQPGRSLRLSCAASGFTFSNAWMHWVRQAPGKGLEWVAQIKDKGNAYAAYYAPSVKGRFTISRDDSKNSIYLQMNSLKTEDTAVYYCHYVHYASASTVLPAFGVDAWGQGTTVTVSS VL: DIVMTQSPLSLPVTPGEPASISCQASQELVHMNRNTYLHWYQQKPGQAPRLLIYKVSNREPGVPDRFSGSGSGTDFTLKISRVEAEDVGVYYCAQGTSVPFTFGQGTKLEIK
0

What fold change of affinity value was documented for this binder, H183/L072 VL E27aI (antibody, name in Kabat numbering, V domains shown, Dual-Ig) VH: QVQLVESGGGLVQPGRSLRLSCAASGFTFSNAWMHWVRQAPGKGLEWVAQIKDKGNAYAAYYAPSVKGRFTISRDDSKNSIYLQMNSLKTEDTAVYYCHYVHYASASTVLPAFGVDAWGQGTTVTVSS VL: DIVMTQSPLSLPVTPGEPASISCQASQILVHMNRNTYLHWYQQKPGQAPRLLIYKVSNRFPGVPDRFSGSGSGTDFTLKISRVEAEDVGVYYCAQGTSVPFTFGQGTKLEIK ?
0.8

Any idea what its fold change of affinity is? The binder is H183/L072 VL V94I (antibody, name in Kabat numbering, V domains shown, Dual-Ig) VH: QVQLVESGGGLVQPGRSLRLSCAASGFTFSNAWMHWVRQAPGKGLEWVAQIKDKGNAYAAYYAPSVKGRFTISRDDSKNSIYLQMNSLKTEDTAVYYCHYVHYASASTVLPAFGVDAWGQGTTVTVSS VL: DIVMTQSPLSLPVTPGEPASISCQASQELVHMNRNTYLHWYQQKPGQAPRLLIYKVSNRFPGVPDRFSGSGSGTDFTLKISRVEAEDVGVYYCAQGTSIPFTFGQGTKLEIK
0.7

Entry under review: H183/L072 VL M27eE (antibody, name in Kabat numbering, V domains shown, Dual-Ig) VH: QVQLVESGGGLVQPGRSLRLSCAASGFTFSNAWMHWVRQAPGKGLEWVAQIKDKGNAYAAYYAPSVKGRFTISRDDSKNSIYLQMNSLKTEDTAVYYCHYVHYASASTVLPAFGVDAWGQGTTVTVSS VL: DIVMTQSPLSLPVTPGEPASISCQASQELVHENRNTYLHWYQQKPGQAPRLLIYKVSNRFPGVPDRFSGSGSGTDFTLKISRVEAEDVGVYYCAQGTSVPFTFGQGTKLEIK . Reported fold change of affinity?
0.9

Would you kindly share the measured fold change of affinity for H183/L072 VL F55P (antibody, name in Kabat numbering, V domains shown, Dual-Ig) VH: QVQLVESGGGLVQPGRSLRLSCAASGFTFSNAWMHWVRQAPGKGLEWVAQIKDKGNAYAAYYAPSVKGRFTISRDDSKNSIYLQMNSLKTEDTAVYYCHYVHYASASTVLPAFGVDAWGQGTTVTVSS VL: DIVMTQSPLSLPVTPGEPASISCQASQELVHMNRNTYLHWYQQKPGQAPRLLIYKVSNRPPGVPDRFSGSGSGTDFTLKISRVEAEDVGVYYCAQGTSVPFTFGQGTKLEIK ?
0
